melting point values by entry

# structureAsSmiles, melting point / °C
rows = [
    ("NS(=O)(=O)c1ccc(-c2nc(-c3cnn4c(C(F)(F)F)cc(-c5ccc(C(F)(F)F)cc5)nc34)no2)s1", 272),
    ("NS(=O)(=O)c1ccc(-c2noc(-c3cnn4c(C(F)(F)F)cc(-c5ccc(C(F)(F)F)c(OCC(F)(F)F)c5)nc34)n2)s1", 255),
    ("Nc1ccc(-c2noc(-c3cnn4c(C(F)F)cc(-c5ccc(C(F)(F)F)c(F)c5)nc34)n2)cn1", 242),
    ("Nc1ccc(-c2noc(-c3cnn4c(C(F)(F)F)cc(-c5ccc(C(F)(F)F)c(OCC(F)(F)F)c5)nc34)n2)cn1", 284),
]

====

Collected melting point values appear next to each entry.

# structureAsSmiles, melting point [°C]
records = [
    ("FC(F)(F)c1ccc(-c2cc(C(F)(F)F)n3ncc(-c4nc(-c5cccnc5)no4)c3n2)cc1", 199),
    ("NS(=O)(=O)c1ccc(-c2noc(-c3ncn4c(C(F)(F)F)cc(-c5ccc(C(F)(F)F)cc5)nc34)n2)s1", 295),
    ("Nc1ccc(-c2noc(-c3cnn4c(C(F)(F)F)cc(-c5ccc(Cl)c(Cl)c5)nc34)n2)cn1", 289),
    ("Nc1ccc(-c2noc(-c3cnn4c(C(F)(F)F)cc(-c5ccc(C(F)(F)F)c(Cl)c5)nc34)n2)cn1", 234),
    ("Cc1cc(-c2cc(C(F)(F)F)n3ncc(-c4nc(-c5ccc(S(N)(=O)=O)s5)no4)c3n2)ccc1C(F)(F)F", 324),
    ("Cc1cc(-c2ccc(C(F)(F)F)cc2)cn2c(-c3nc(-c4cccc(S(N)(=O)=O)c4)no3)cnc12", 326),
    ("Nc1ncc(-c2noc(-c3cnn4c(C(F)(F)F)cc(-c5ccc(Cl)cc5)nc34)n2)cn1", 268),
]

====

propertyName: melting point (°C)

# structureAsSmiles, propertyName, unitString, obsValue
records = [
    ("Nc1cc(-c2noc(-c3cnc4ccc(-c5ccc(C(F)(F)F)cc5)cn34)n2)ccn1", "melting point", "°C", 280),
    ("NS(=O)(=O)c1cccc(-c2noc(-c3cnn4ccc(-c5ccc(Cl)cc5)nc34)n2)c1", "melting point", "°C", 223),
    ("Cc1cc(-c2ccc(Cl)cc2)cn2c(-c3nc(-c4ccc(S(N)(=O)=O)s4)no3)cnc12", "melting point", "°C", 271),
    ("Cc1cc(-c2cc(C(F)(F)F)n3ncc(-c4nc(-c5ccc(N)nc5)no4)c3n2)ccc1C(F)(F)F", "melting point", "°C", 220),
]

====

// melting point lookup, one value per entry

# structureAsSmiles, melting point / °C
data = [
    ("NS(=O)(=O)c1ccc(-c2noc(-c3cnn4c(C(F)(F)F)cc(-c5ccc(Cl)cc5)nc34)n2)s1", 294),
    ("NS(=O)(=O)c1ccc(-c2noc(-c3cnc4ccc(-c5ccc(C(F)(F)F)cc5)cn34)n2)s1", 280),
    ("NS(=O)(=O)c1cccc(-c2noc(-c3cnc4ccc(-c5ccc(C(F)(F)F)cc5)cn34)n2)c1", 288),
    ("Cc1cc(-c2ccc(Cl)cc2)nc2c(-c3nc(-c4cccc(S(N)(=O)=O)c4)no3)cnn12", 275),
    ("Cc1cc(-c2cc(C(F)(F)F)n3ncc(-c4nc(-c5cnc(N)nc5)no4)c3n2)ccc1C(F)(F)F", 272),
    ("Cc1cc(-c2ccc(Cl)cc2)nc2c(-c3nc(-c4ccc(S(N)(=O)=O)s4)no3)cnn12", 253),
    ("Cc1cc(-c2cc(C(F)(F)F)n3ncc(-c4nc(-c5ccc(N)nc5)no4)c3n2)ccc1Cl", 262),
]
